viability at 10 µM values for the compounds below.
- Test system: non-senescent control IMR90 ER:RAS cells
- ASSAY_SUMMARY: Nuclei count (Hoechst, high content imaging) senolytic assay, OIS model, non-senescent control cells
- Assay type: cell-based, human
- CONDITION_INFO: Homo sapiens, IMR-90, Control; log (dose) [M] -5; read-out: % Cell Survival
Expressed in %, but write only the number.

{"columns": ["COMPOUND", "RECORDED_MEASUREMENT"],
 "data": [
  ["COc1cc(/C=C/C(=O)O[C@H]2CC[C@]34C[C@]35CC[C@]3(C)[C@@H]([C@H](C)CCC=C(C)C)CC[C@@]3(C)[C@@H]5CC[C@H]4C2(C)C)ccc1O", 113]
]}

Missing value: viability at 10 µM, non-senescent control IMR90 ER:RAS cells, entry CO[C@H]1C[C@@H]2CC[C@@H](C)[C@@](O)(O2)C(=O)C(=O)N2CCCC[C@H]2C(=O)O[C@H]([C@H](C)C[C@@H]2CC[C@@H](OP(C)(C)=O)[C@H](OC)C2)CC(=O)[C@H](C)/C=C(\C)[C@@H](O)[C@@H](OC)C(=O)[C@H](C)C[C@H](C)/C=C/C=C/C=C/1C [Ridaforolimus, ridaforolimus, reference compound] . Fill in?
119

###

- Test system: non-senescent control IMR90 ER:RAS cells
- ASSAY_SUMMARY: Nuclei count (Hoechst, high content imaging) senolytic assay, OIS model, non-senescent control cells
- Format: cell-based, human
- CONDITION_INFO: Homo sapiens, IMR-90, Control; log (dose) [M] -8; read-out: % Cell Survival
MEASUREMENT_NAME: viability at 0.01 µM
Report field: quantity (unit follows the number).

{"columns": ["COMPOUND", "viability at 0.01 µM"],
 "data": [
  ["CO[C@H]1C[C@@H]2CC[C@@H](C)[C@@](O)(O2)C(=O)C(=O)N2CCCC[C@H]2C(=O)O[C@H]([C@H](C)C[C@@H]2CC[C@H](n3cnnn3)[C@H](OC)C2)CC(=O)[C@H](C)/C=C(\\C)[C@@H](O)[C@@H](OC)C(=O)[C@H](C)C[C@H](C)/C=C/C=C/C=C/1C [Zotarolimus, zotarolimus, reference compound]", "99.5%"]
]}

Missing value: viability at 0.01 µM, non-senescent control IMR90 ER:RAS cells, entry Cc1c(-c2c(F)cc(C(N)=O)c3[nH]c4c(c23)CC[C@H](C(C)(C)O)C4)cccc1-n1c(=O)c2cccc(F)c2n(C)c1=O . Fill in?
95.3%

// next record O=c1c(O)c(-c2ccc(O)cc2O)oc2cc(O)cc(O)c12
97.2%

###

- Tested on: non-senescent control IMR90 ER:RAS cells
- ASSAY_SUMMARY: Nuclei count (Hoechst, high content imaging) senolytic assay, OIS model, non-senescent control cells
- Format: cell-based, human
- CONDITION_INFO: Homo sapiens, IMR-90, 72 h, Control, log (dose) [M] -8, 72 h, mean n=3 (Fig 3C); read-out: Mean % Cell Survival
MEASUREMENT_NAME: viability at 0.01 µM

{"columns": ["MOLECULE", "viability at 0.01 µM"],
 "data": [
  ["COC[C@H]1C[C@@H](c2nc(-c3ccc4c(c3)COc3cc5c(ccc6nc([C@@H]7CC[C@H](C)N7C(=O)[C@@H](NC(=O)OC)C(C)C)[nH]c65)cc3-4)c[nH]2)N(C(=O)[C@H](NC(=O)OC)c2ccccc2)C1 [Velpatasvir, velpatasvir, reference compound]", "96.2%"]
]}

Consider the molecule O=c1cc(-c2ccc(O)cc2)oc2cc(O)c(O)c(O)c12 [Scutellarein, scutellarein] and give its measured viability at 0.01 µM.
121%

// next record CO[C@H]1C[C@@H]2CC[C@@H](C)[C@@](O)(O2)C(=O)C(=O)N2CCCC[C@H]2C(=O)O[C@H]([C@H](C)C[C@@H]2CC[C@@H](O)[C@H](OC)C2)CC(=O)[C@H](C)/C=C(\C)[C@@H](O)[C@@H](OC)C(=O)[C@H](C)C[C@H](C)/C=C/C=C/C=C/1C [Rapamycin, rapamycin, reference compound]
100%

###

- Tested on: non-senescent control IMR90 ER:RAS cells
- ASSAY_SUMMARY: Nuclei count (Hoechst, high content imaging) senolytic assay, OIS model, non-senescent control cells
- Format: cell-based, human
- CONDITION_INFO: Homo sapiens, IMR-90, 72 h, Control, log (dose) [M] -7.66, 72 h, mean n=3 (Fig 3C); read-out: Mean % Cell Survival
MEASUREMENT_NAME: viability at 0.02188 µM (%)
Expressed in %, but write only the number.

{"columns": ["COMPOUND", "RECORDED_MEASUREMENT"],
 "data": [
  ["CO[C@H]1C[C@H](O[C@H]2CC[C@@]3(C)[C@H](CC[C@@H]4[C@@H]3CC[C@]3(C)[C@@H](C5=CC(=O)OC5)[C@@H](OC(C)=O)C[C@]43O)C2)O[C@@H](C)[C@@H]1O", 80.8]
]}

Consider the compound O=c1c(O)c(-c2ccc(O)cc2O)oc2cc(O)cc(O)c12 and give its measured viability at 0.02188 µM.
91.5

// next record COC[C@H]1C[C@@H](c2nc(-c3ccc4c(c3)COc3cc5c(ccc6nc([C@@H]7CC[C@H](C)N7C(=O)[C@@H](NC(=O)OC)C(C)C)[nH]c65)cc3-4)c[nH]2)N(C(=O)[C@H](NC(=O)OC)c2ccccc2)C1 [Velpatasvir, velpatasvir, reference compound]
110

// next record CO[C@H]1C[C@@H]2CC[C@@H](C)[C@@](O)(O2)C(=O)C(=O)N2CCCC[C@H]2C(=O)O[C@H]([C@H](C)C[C@@H]2CC[C@@H](OCCO)[C@H](OC)C2)CC(=O)[C@H](C)/C=C(\C)[C@@H](O)[C@@H](OC)C(=O)[C@H](C)C[C@H](C)/C=C/C=C/C=C/1C [Everolimus, everolimus, reference compound]
102

// next record O=c1oc2c(O)c(O)cc3c(=O)oc4c(O)c(O)cc1c4c23
112

###

viability at 0.02188 µM values for the compounds below.
- Test system: senescent IMR90 ER:RAS cells (4-OHT-induced)
- ASSAY_SUMMARY: Nuclei count (Hoechst, high content imaging) senolytic assay, oncogene-induced senescence (OIS) model, senescent cells
- Assay type: cell-based, human
- CONDITION_INFO: Homo sapiens, IMR-90, 72 h, Senescent, log (dose) [M] -7.66, 72 h, mean n=3 (Fig 3C); read-out: Mean % Cell Survival
Expressed in %, but write only the number.

// below: answered compounds
{"columns": ["COMPOUND", "viability at 0.02188 µM [%]"],
 "data": [
  ["O=c1oc2c(O)c(O)cc3c(=O)oc4c(O)c(O)cc1c4c23", 114],
  ["COc1cc(O)c2c(=O)cc(-c3ccc(OC)c(-c4c(O)cc(O)c5c(=O)cc(-c6ccc(O)cc6)oc45)c3)oc2c1", 105]
]}

Consider the compound Cc1cnc(C(=O)N[C@H]2CCCCC/C=C\[C@@H]3C[C@@]3(C(=O)NS(=O)(=O)C3CC3)NC(=O)[C@@H]3C[C@@H](Oc4nc5ccccc5c5ccccc45)CN3C2=O)cn1 [Paritaprevir, paritaprevir, reference compound] and give its measured viability at 0.02188 µM.
86.9

// next record Cc1cc2c(C(C)C)c(O)c(O)c(C=O)c2c(O)c1-c1c(C)cc2c(C(C)C)c(O)c(O)c(C=O)c2c1O
145

// next record O=c1c(O)c(-c2ccc(O)cc2O)oc2cc(O)cc(O)c12
92.3

###

- System: senescent IMR90 ER:RAS cells (4-OHT-induced)
- ASSAY_SUMMARY: Nuclei count (Hoechst, high content imaging) senolytic assay, oncogene-induced senescence (OIS) model, senescent cells
- Type: cell-based, human
- CONDITION_INFO: Homo sapiens, IMR-90, 72 h, Senescent, log (dose) [M] -7, 72 h, mean n=3 (Fig 3C); read-out: Mean % Cell Survival
MEASUREMENT_NAME: viability at 0.1 µM (%)
Expressed in %, but write only the number.

{"columns": ["COMPOUND", "viability at 0.1 µM / %"],
 "data": [
  ["CO[C@H]1C[C@H](O[C@H]2CC[C@@]3(C)[C@H](CC[C@@H]4[C@@H]3CC[C@]3(C)[C@@H](C5=CC(=O)OC5)[C@@H](OC(C)=O)C[C@]43O)C2)O[C@@H](C)[C@@H]1O", 3.83],
  ["C[C@@H]1O[C@@H](O[C@H]2C[C@@H](O)[C@]3(CO)[C@H]4[C@H](O)C[C@]5(C)[C@@H](C6=CC(=O)OC6)CC[C@]5(O)[C@@H]4CC[C@]3(O)C2)[C@H](O)[C@H](O)[C@H]1O [Ouabain, ouabain, reference compound]", 4.75],
  ["CO[C@H]1C[C@@H]2CC[C@@H](C)[C@@](O)(O2)C(=O)C(=O)N2CCCC[C@H]2C(=O)O[C@H]([C@H](C)C[C@@H]2CC[C@@H](OP(C)(C)=O)[C@H](OC)C2)CC(=O)[C@H](C)/C=C(\\C)[C@@H](O)[C@@H](OC)C(=O)[C@H](C)C[C@H](C)/C=C/C=C/C=C/1C [Ridaforolimus, ridaforolimus, reference compound]", 126],
  ["O=c1oc2c(O)c(O)cc3c(=O)oc4c(O)c(O)cc1c4c23", 117]
]}

Please find the next compound below.
Consider the compound Cc1cc2c(C(C)C)c(O)c(O)c(C=O)c2c(O)c1-c1c(C)cc2c(C(C)C)c(O)c(O)c(C=O)c2c1O and give its measured viability at 0.1 µM.
130

All values here come from paper PMC10257182.
